Test system: large crabgrass (Digitaria sanguinalis)
Assay procedure: Pre-emergence application, herbicidal effect on large crabgrass (Table 1)
Type: in vivo
Parameters: key: 0: not damaged; 5: completely killed
Assay conditions: 20 g./a., 20 days after application, score 0-5
Measurement type: Herbicidal effect, large crabgrass

Would you please look over these solved cases?
Compound: C=C(C)CSP(=O)(OCC)SCC(=O)N1CCCCC1CC (centres unmarked)
Herbicidal effect, large crabgrass: 5
//
Compound: CCCCCSP(=O)(OCCCC)SCC(=O)N1CCCCC1CC (centres unmarked)
Herbicidal effect, large crabgrass: 5
//
Compound: CCCCOP(=O)(SCC)SCC(=O)N1CCCCC1C (centres unmarked)
Herbicidal effect, large crabgrass: 5
//
Compound: CCCCOP(=O)(SCC(=O)N1CCCCC1CC)SC(C)CC (centres unmarked)
Herbicidal effect, large crabgrass: 5

Please turn your attention to the following entry.
Input: Look at this compound and give its reported Herbicidal effect, large crabgrass. CCOP(=O)(SCC(=O)N1CCCC(C)C1)SC(C)C (centres unmarked)
Output: 5

----------
Tested on: common purslane (Portulaca oleracea)
Assay procedure: Pre-emergence application, herbicidal effect on common purslane (Table 1)
Assay type: in vivo
Assay conditions: 10 g./a., 20 days after application, score 0-5
Measurement type: Herbicidal effect, common purslane
Write the value as a bare number.

Compound: CCCCOP(=O)(SCCCC)SCC(=O)N1CCCCC1CC (stereo not shown) [Compound 95]
Obs value: 2

Compound: CCCOP(=O)(SC)SCC(=O)N1CCCCC1CC (stereo not shown) [Compound 83]
Obs value: 5

Compound: CCCCOP(=O)(SCC)SCC(=O)N1CCCCC1C (stereo not shown) [Compound 15]
Obs value: 5

Compound: CCCCSP(=O)(OCC)SCC(=O)N1CCC(C)CC1 (stereo not shown) [Compound 24]
Obs value: 4

Compound: CCOP(=O)(SCC(=O)N1CCC(C)CC1)SC(C)C (stereo not shown) [Compound 26]
Obs value: 4

Input: // Herbicidal effect, common purslane lookup, key: CCCCCSP(=O)(OCCCC)SCC(=O)N1CCCCC1CC (stereo not shown) [Compound 98]
Output: 4

Input: I have this compound here, C=C(C)CSP(=O)(OCC)SCC(=O)N1CCCCC1CC (stereo not shown) [Compound 81] , and I need its recorded Herbicidal effect, common purslane.
Output: 5

Input: # Herbicidal effect, common purslane lookup, item CCCOP(=O)(SC)SCC(=O)N1CCCCC1C (stereo not shown) [Compound 66]
Output: 5

Input: // lookup Herbicidal effect, common purslane for CCOP(=O)(SCC)SCC(=O)N1CCCC(C)C1 (stereo not shown) [Compound 71]
Output: 4

Input: Can you look up the measured Herbicidal effect, common purslane of CCOP(=O)(SCC)SCC(=O)N1CCC(C)CC1 (stereo not shown) [Compound 100] for me?
Output: 3

----------
Tested on: redroot pigweed (Amaranthus retroflexus)
Assay procedure: Pre-emergence application, herbicidal effect on redroot pigweed (Table 1)
Type: in vivo
Assay conditions: 40 g./a., 20 days after application, score 0-5
Measurement type: Herbicidal effect, redroot pigweed
Reply with the value as a number alone.

Compound: CCCCSP(=O)(OCCC)SCC(=O)N1CCCCC1C (stereo not shown) [Compound 17]
Obs value: 4
--
Compound: CCCOP(=O)(SCCc1ccccc1)SCC(=O)N1CCCCC1CC (stereo not shown) [Compound 19]
Obs value: 4
--
Compound: CCCCOP(=O)(SCC(=O)N1CCCCC1C)SCc1ccc(C)cc1 (stereo not shown) [Compound 56]
Obs value: 5
--
Compound: CCOP(=O)(SCC(=O)N1CCCCC1C)SCc1ccc(C)cc1 (stereo not shown) [Compound 52]
Obs value: 5
--
Compound: CCCCOP(=O)(SCCC(C)C)SCC(=O)N1CCCCC1CC (stereo not shown) [Compound 99]
Obs value: 5

Input: What measured Herbicidal effect, redroot pigweed is associated with CCCCCSP(=O)(OCCCC)SCC(=O)N1CCCCC1CC (stereo not shown) [Compound 98] on redroot pigweed (Amaranthus retroflexus)?
Output: 5

Input: Which measured Herbicidal effect, redroot pigweed belongs to CCCCCSP(=O)(OCC)SCC(=O)N1CCCCC1CC (stereo not shown) [Compound 78] , tested on redroot pigweed (Amaranthus retroflexus)?
Output: 5

Input: Enter reported Herbicidal effect, redroot pigweed observed with redroot pigweed (Amaranthus retroflexus) for CCCOP(=O)(SCCC(C)C)SCC(=O)N1CCCCC1CC (stereo not shown) [Compound 90]
Output: 5

Input: For the record CCOP(=O)(SCC(=O)N1CCCCC1C)SC(C)CC (stereo not shown) [Compound 5] , what value of Herbicidal effect, redroot pigweed is listed for redroot pigweed (Amaranthus retroflexus)?
Output: 5

Input: For redroot pigweed (Amaranthus retroflexus), provide Herbicidal effect, redroot pigweed of CCOP(=O)(SCC(=O)N1CCCCC1C)SC(C)C (stereo not shown) [Compound 3] please.
Output: 5

----------
Tested on: common purslane (Portulaca oleracea)
Assay procedure: Pre-emergence application, herbicidal effect on common purslane (Table 1)
Assay type: in vivo
Assay conditions: 10 g./a., 20 days after application, score 0-5
Measurement type: Herbicidal effect, common purslane
// return a plain number; no unit text

Examples with answers:
Molecule: CCOP(=O)(SCCC(C)C)SCC(=O)N1CCCC(C)C1 (stereo not shown)
Measurement type: Herbicidal effect, common purslane
Obs value: 4

Molecule: CCCCOP(=O)(SCC(=O)N1CCCCC1CC)SC(C)C (stereo not shown)
Measurement type: Herbicidal effect, common purslane
Obs value: 3

Molecule: CCCCSP(=O)(OCCC)SCC(=O)N1CCCCC1C (stereo not shown)
Measurement type: Herbicidal effect, common purslane
Obs value: 3

Input: Give the measured Herbicidal effect, common purslane of CCOP(=O)(SCCC(C)C)SCC(=O)N1CCCCC1CC (stereo not shown) .
Output: 5

Input: Param item = CCOP(=O)(SCC(=O)N1CCCCC1C)SCc1ccc(C)cc1 (stereo not shown) ; retrieve measured Herbicidal effect, common purslane.
Output: 3

Input: Which value of Herbicidal effect, common purslane has been reported for CCOP(=O)(SCCCC(C)C)SCC(=O)N1CCCCC1CC (stereo not shown) in the records?
Output: 3

Input: Name the reported Herbicidal effect, common purslane value associated with the molecule CCCOP(=O)(SCCC(C)C)SCC(=O)N1CCCCC1C (stereo not shown)
Output: 4

Input: Return reported Herbicidal effect, common purslane; argument: CCCOP(=O)(SCC(=O)N1CCCCC1C)SCC(C)C (stereo not shown)
Output: 4

Input: Can you look up the measured Herbicidal effect, common purslane of CCCCCSP(=O)(OCC)SCC(=O)N1CCCC(C)C1 (stereo not shown) for me?
Output: 3

Input: Which Herbicidal effect, common purslane value belongs to CCOP(=O)(SCC(=O)N1CCCCC1C)SCc1ccccc1 (stereo not shown) ?
Output: 4

----------
Test system: redroot pigweed (Amaranthus retroflexus)
Assay procedure: Pre-emergence application, herbicidal effect on redroot pigweed (Table 1)
Assay type: in vivo
Parameters: key: 0: not damaged; 5: completely killed
Assay conditions: 20 g./a., 20 days after application, score 0-5
Measurement type: Herbicidal effect, redroot pigweed
Answer with a bare number; do not write a unit.

Illustrative cases are given below, each with its answer.
Molecule: CCCOP(=O)(SC)SCC(=O)N1CCCCC1CC (centres unmarked)
Herbicidal effect, redroot pigweed: 5

Molecule: CCCOP(=O)(SC)SCC(=O)N1CCCCC1C (centres unmarked)
Herbicidal effect, redroot pigweed: 5

Molecule: CCOP(=O)(SCC(=O)N1CCCC(C)C1)SC(C)C (centres unmarked)
Herbicidal effect, redroot pigweed: 4

Input: Suppose we examine the molecule CCOP(=O)(SCC)SCC(=O)N1CCCC(C)C1 (centres unmarked) ; what Herbicidal effect, redroot pigweed value has been reported?
Output: 5

Input: Endpoint output: Herbicidal effect, redroot pigweed of CCCOP(=O)(SCC(=O)N1CCCCC1C)SCC(C)C (centres unmarked) . Value?
Output: 4

----------
Test system: redroot pigweed (Amaranthus retroflexus)
Assay procedure: Pre-emergence application, herbicidal effect on redroot pigweed (Table 1)
Assay type: in vivo
Set-up: key: 0: not damaged; 5: completely killed
Assay conditions: 40 g./a., 20 days after application, score 0-5
Each entry below carries its reported Herbicidal effect, redroot pigweed.
Write the value as a bare number.

# count of solved cases: 4
Compound: C=C(Cl)CSP(=O)(OCC)SCC(=O)N1CCCCC1CC (centres unmarked)
Herbicidal effect, redroot pigweed: 5

Compound: CCCSP(=O)(OCC)SCC(=O)N1CCC(C)CC1 (centres unmarked)
Herbicidal effect, redroot pigweed: 5

Compound: CCCOP(=O)(SCC(=O)N1CCCCC1CC)SCC(C)C (centres unmarked)
Herbicidal effect, redroot pigweed: 4

Compound: CCOP(=O)(SC)SCC(=O)N1CCCCC1CC (centres unmarked)
Herbicidal effect, redroot pigweed: 5

Please turn your attention to the following entry.
Input: Looking for the measured Herbicidal effect, redroot pigweed of CCOP(=O)(SCC(=O)N1CCCC(C)C1)SC(C)C (centres unmarked) , can you help?
Output: 5

----------
Some compounds, each annotated with its measured Herbicidal effect, redroot pigweed.
System: redroot pigweed (Amaranthus retroflexus)
Assay procedure: Pre-emergence application, herbicidal effect on redroot pigweed (Table 1)
Format: in vivo
Assay conditions: 10 g./a., 20 days after application, score 0-5
Protocol: Seeds of barnyard grass (Echinochloa crus-galli) and large crabgrass (Digitaria sanguinalis) as representatives of grassy weeds and those of radish, redroot pigweed (Amaranthus retroflexus), common purslane (Portulaca oleracea) and common lambsquarter (Chenopodium album) as representatives of broad-leaved weeds were individually sowed in flower pots of about 10 cm. in diameter. […] Herbicidal effects were evaluated by the numerals ranging from 0 (not damaged) to 5 (completely killed). […]

Recorded results for 5 compounds are shown here.
Compound: CCCCCSP(=O)(OCCC)SCC(=O)N1CCCCC1C (stereo not drawn)
Target system: redroot pigweed (Amaranthus retroflexus)
Herbicidal effect, redroot pigweed: 4
--
Compound: CCOP(=O)(SCC(=O)N1CCCCC1CC)SCC(C)C (stereo not drawn)
Target system: redroot pigweed (Amaranthus retroflexus)
Herbicidal effect, redroot pigweed: 5
--
Compound: CCOP(=O)(SCC(=O)N1CCCCC1C)SC(C)CC (stereo not drawn)
Target system: redroot pigweed (Amaranthus retroflexus)
Herbicidal effect, redroot pigweed: 5
--
Compound: CCOP(=O)(SCC(=O)N1CCC(C)CC1)SC(C)CC (stereo not drawn)
Target system: redroot pigweed (Amaranthus retroflexus)
Herbicidal effect, redroot pigweed: 3
--
Compound: CCCCSP(=O)(OCCC)SCC(=O)N1CCCCC1CC (stereo not drawn)
Target system: redroot pigweed (Amaranthus retroflexus)
Herbicidal effect, redroot pigweed: 4

Please look at the following compound next.
Input: Look up Herbicidal effect, redroot pigweed for this compound: CCCCCSP(=O)(OCC)SCC(=O)N1CCCC(C)C1 (stereo not drawn)
Output: 3
